# tested.target: mAChR M4 (Homo sapiens, UniProt P08173)
# Construct: expressed in transfected cells; host or cells: CHO-K1 cells stably transfected with M4 cDNA and chimeric G-protein Gqi5
# Sequence (P08173 whole entry): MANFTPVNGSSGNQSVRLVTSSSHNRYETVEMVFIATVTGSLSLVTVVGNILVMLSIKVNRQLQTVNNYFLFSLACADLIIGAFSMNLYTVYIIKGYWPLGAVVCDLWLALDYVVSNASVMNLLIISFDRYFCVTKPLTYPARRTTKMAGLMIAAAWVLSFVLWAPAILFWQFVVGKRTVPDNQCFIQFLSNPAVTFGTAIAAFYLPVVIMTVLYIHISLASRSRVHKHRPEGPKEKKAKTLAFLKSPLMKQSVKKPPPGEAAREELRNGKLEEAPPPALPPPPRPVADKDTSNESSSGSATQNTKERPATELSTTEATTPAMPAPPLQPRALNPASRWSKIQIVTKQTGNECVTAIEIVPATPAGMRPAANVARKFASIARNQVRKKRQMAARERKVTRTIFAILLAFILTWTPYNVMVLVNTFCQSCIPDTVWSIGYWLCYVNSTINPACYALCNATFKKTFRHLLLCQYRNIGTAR
# method.summary: mAChR M4 cell-based functional assay (calcium mobilization, potentiation of EC20 acetylcholine response)
# stated.conditions: % ACh maximum at 30 μM
Listed here: items and their measured Emax at 30 µM.
// unit must come after the numeric part

Can you look up Emax at 30 µM on mAChR M4 (Homo sapiens, UniProt P08173) for Cc1nnc2sc(C(=O)NC3CCN(C(=O)N4CCOCC4)C3)c(N)c2c1C (centres unmarked) [Example B208] ? 73%

Can you look up Emax at 30 µM on mAChR M4 (Homo sapiens, UniProt P08173) for COc1ccc(CNC(=O)c2sc3nnc(C)c(C)c3c2N)cc1C(F)(F)F [Example B171] ? 71%

Can you look up Emax at 30 µM on mAChR M4 (Homo sapiens, UniProt P08173) for Cc1ccc(CNC(=O)c2sc3nnc(C)c(C)c3c2N)nc1 [Example B470] ? 48%

Can you look up Emax at 30 µM on mAChR M4 (Homo sapiens, UniProt P08173) for Cc1nnc2sc(C(=O)N3CCC(NS(=O)(=O)c4cccc(F)c4)C3)c(N)c2c1C (centres unmarked) [Example B211] ? 70%

New cases:
Can you look up Emax at 30 µM on mAChR M4 (Homo sapiens, UniProt P08173) for Cc1nnc2sc(C(=O)NCc3ccc4c(c3)CC(=O)N4)c(N)c2c1C [Example B276] ? 67%

Can you look up Emax at 30 µM on mAChR M4 (Homo sapiens, UniProt P08173) for Cc1nnc2sc(C(=O)N3CCC(NC(=O)Oc4ccccc4)C3)c(N)c2c1C (centres unmarked) [Example B205] ? 71%

Can you look up Emax at 30 µM on mAChR M4 (Homo sapiens, UniProt P08173) for COC(=O)N1CC(NC(=O)c2sc3nnc(C)c(C)c3c2N)C1 [Example B153] ? 83%

Can you look up Emax at 30 µM on mAChR M4 (Homo sapiens, UniProt P08173) for Cc1nc(C(F)(F)F)c(S(=O)(=O)N2CC(NC(=O)c3sc4nnc(C)c(C)c4c3N)C2)s1 [Example B101] ? 66%

Can you look up Emax at 30 µM on mAChR M4 (Homo sapiens, UniProt P08173) for Cc1nnc2sc(C(=O)NC3CN(C(=O)c4ccncc4)C3)c(N)c2c1C [Example B150] ? 62%

Can you look up Emax at 30 µM on mAChR M4 (Homo sapiens, UniProt P08173) for Cc1nnc2sc(C(=O)NC3CN(C(=O)c4cccs4)C3)c(N)c2c1C [Example B128] ? 78%

Can you look up Emax at 30 µM on mAChR M4 (Homo sapiens, UniProt P08173) for Cc1nnc2sc(C(=O)NCCc3ccccn3)c(N)c2c1C [Example B94] ? 47%

Can you look up Emax at 30 µM on mAChR M4 (Homo sapiens, UniProt P08173) for Cc1nnc2sc(C(=O)NC3CN(C(=O)Oc4ccccc4)C3)c(N)c2c1C [Example B151] ? 57%

Can you look up Emax at 30 µM on mAChR M4 (Homo sapiens, UniProt P08173) for Cc1nnc2sc(C(=O)N3CCC(NC(=O)C4CCCCC4)C3)c(N)c2c1C (centres unmarked) [Example B237] ? 62%
